Measured IC50, listed per entry for reference.
Test system: CEM cells HIV-1 protection, formazan growth assay
Test: NCI AIDS Antiviral Assay
Details: measured here: growth of uninfected CEM cells
Protocol: The ability of compounds to protect human CEM cells from HIV-1 infection is measured as a screen for new compounds capable of inhibiting the HIV virus. Five concentrations of drug were tested on uninfected and infected cells and cell growth was measured using a soluble formazan assay. […] Compounds that provided at least 50% protection were retested. Compounds that provided at least 50% protection on retest were listed as moderately active. […]
Unit µM implied. Number only.

{"columns": ["Molecule", "IC50 (µM)"],
 "data": [
  ["O=C(O)C(=Cc1ccc(-c2ccccc2)cc1)C(=O)O", 15.5]
]}

Briefly, IC50 measured for CC1(C)CC(C)(Br)C(Br)C(=O)C1C(O)(C(F)(F)F)C(F)(F)F (centres undefined) : 33.1

Ref: PubChem BioAssay AID179
